Origin of measurements: ChEMBL document CHEMBL4270604

So I've got a bunch of compounds here, and I need their inhibition at 0.75 h, 5 µM values.
study-system: CYP2D6 (Homo sapiens, UniProt P10635)
Sequence (P10635 whole entry): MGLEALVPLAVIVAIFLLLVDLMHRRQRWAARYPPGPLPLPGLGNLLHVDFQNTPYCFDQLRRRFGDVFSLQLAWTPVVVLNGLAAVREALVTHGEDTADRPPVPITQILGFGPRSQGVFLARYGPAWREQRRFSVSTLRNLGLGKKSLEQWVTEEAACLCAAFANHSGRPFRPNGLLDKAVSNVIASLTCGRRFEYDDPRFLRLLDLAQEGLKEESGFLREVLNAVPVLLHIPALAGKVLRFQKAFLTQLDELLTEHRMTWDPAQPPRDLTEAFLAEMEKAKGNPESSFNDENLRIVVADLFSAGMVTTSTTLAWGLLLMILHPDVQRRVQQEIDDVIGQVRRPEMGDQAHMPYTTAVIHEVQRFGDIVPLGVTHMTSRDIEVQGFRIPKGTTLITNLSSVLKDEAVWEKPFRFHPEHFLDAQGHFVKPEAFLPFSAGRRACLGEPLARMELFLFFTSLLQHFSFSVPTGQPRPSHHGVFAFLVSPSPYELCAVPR
test: Inhibition of recombinant human CYP2D6 expressed in insect cell microsomes at 5 uM using Luciferin-ME EGE as substrate preincubated for 30 mins followed by NADPH addition measured after 45 mins by luminometric method
Type: ADME
run-conditions: probe Luciferin-ME EGE
Answers are plain numbers, in %.

Examples with answers:
>>> number("COc1cc(C(=O)NC(=N)Nc2ccc(C)c(NC(=O)c3ccc(-c4ccc(F)cc4)cc3)c2)cc(OC)c1OC.Cl")
25
>>> number("COc1cc(C(=O)NC(=N)Nc2ccc(C)c(NC(=O)c3ccc(CCc4ccccc4)cc3)c2)cc(OC)c1OC.Cl")
12
>>> number("COc1cc(C(=O)NC(=N)Nc2ccc(C)c(NC(=O)c3ccc(-c4ccccc4)cc3)c2)cc(OC)c1OC.Cl")
29

Given COc1cc(C(=O)NC(=S)Nc2ccc(C)c(NC(=O)c3ccc(-c4ccc(F)cc4)cc3)c2)cc(OC)c1OC , state its recorded inhibition at 0.75 h, 5 µM.
1

###

study-system: CYP1A2 (Homo sapiens, UniProt P05177)
test: Inhibition of recombinant human CYP1A2 expressed in insect cell microsomes at 5 uM using Luciferin-ME as substrate preincubated for 10 mins followed by NADPH addition measured after 30 mins by luminometric method
Type: ADME
run-conditions: probe Luciferin-ME
Would you kindly list inhibition at 0.5 h, 5 µM for each of these molecules?
Answers are plain numbers, in %.

Some solved entries appear below for comparison.
>>> number("COc1cc(C(=O)NC(=S)Nc2ccc(C)c(NC(=O)c3ccc(-c4ccc(F)cc4)cc3)c2)cc(OC)c1OC")
5
>>> number("COc1cc(C(=O)NC(=N)Nc2ccc(C)c(NC(=O)c3ccc(-c4ccccc4)cc3)c2)cc(OC)c1OC.Cl")
64
>>> number("COc1cc(C(=O)NC(=N)Nc2ccc(C)c(NC(=O)c3ccc(-c4ccc(F)cc4)cc3)c2)cc(OC)c1OC.Cl")
58

So what inhibition at 0.5 h, 5 µM did COc1cc(C(=O)NC(=N)Nc2ccc(C)c(NC(=O)c3ccc(CCc4ccccc4)cc3)c2)cc(OC)c1OC.Cl get with CYP1A2 (Homo sapiens, UniProt P05177)?
43

###

test: in vitro
run-conditions: human, Caco-2
Description: Apparent permeability of the compound from basolateral to apical side in human Caco2 cells after 120 mins by LC-MS/MS analysis
Please respond with reported Papp B→A at 2 h for every item in the list.
Respond with a number, then the unit of measure.

>>> result("COc1cc(C(=O)NC(=N)Nc2ccc(C)c(NC(=O)c3ccc(-c4ccc(F)cc4)cc3)c2)cc(OC)c1OC.Cl")
"0.37 ×10⁻⁶ cm/s"
>>> result("COc1cc(C(=O)NC(=N)Nc2ccc(C)c(NC(=O)c3ccc(CCc4ccccc4)cc3)c2)cc(OC)c1OC.Cl")
"0.737 ×10⁻⁶ cm/s"

GET /values?readout=Papp B→A at 2 h&item= COc1cc(C(=O)NC(=N)Nc2ccc(C)c(NC(=O)c3ccc(-c4ccccc4)cc3)c2)cc(OC)c1OC.Cl
0.651 ×10⁻⁶ cm/s

###

study-system: CYP1A2 (Homo sapiens)
Sequence (P05177 whole entry): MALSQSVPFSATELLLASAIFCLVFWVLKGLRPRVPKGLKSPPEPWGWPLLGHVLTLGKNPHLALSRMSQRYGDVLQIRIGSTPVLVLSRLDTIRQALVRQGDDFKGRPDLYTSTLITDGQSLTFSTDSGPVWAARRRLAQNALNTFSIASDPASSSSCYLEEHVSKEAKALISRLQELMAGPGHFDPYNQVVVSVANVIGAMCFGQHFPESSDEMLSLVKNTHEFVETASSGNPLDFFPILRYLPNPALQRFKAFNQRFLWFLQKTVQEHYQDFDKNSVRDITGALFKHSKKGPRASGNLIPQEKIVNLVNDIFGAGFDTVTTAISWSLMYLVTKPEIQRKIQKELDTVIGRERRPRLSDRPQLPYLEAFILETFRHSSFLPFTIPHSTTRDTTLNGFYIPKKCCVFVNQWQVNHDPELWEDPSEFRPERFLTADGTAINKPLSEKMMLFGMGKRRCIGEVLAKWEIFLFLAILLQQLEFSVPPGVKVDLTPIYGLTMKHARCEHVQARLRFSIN
test: Inhibition of recombinant human CYP1A2 expressed in insect cell microsomes at 10 uM using Luciferin-ME as substrate preincubated for 10 mins followed by NADPH addition measured after 30 mins by luminometric method
Format: ADME
run-conditions: probe Luciferin-ME
Record form. Attribute: inhibition at 0.5 h, 10 µM. Fill in for each entry.
Give bare numbers, in %.

Some entries whose results are on file:
>>> number("COc1cc(C(=O)NC(=N)Nc2ccc(C)c(NC(=O)c3ccc(-c4ccc(F)cc4)cc3)c2)cc(OC)c1OC.Cl")
59
>>> number("COc1cc(C(=O)NC(=N)Nc2ccc(C)c(NC(=O)c3ccc(-c4ccccc4)cc3)c2)cc(OC)c1OC.Cl")
64
>>> number("COc1cc(C(=O)NC(=S)Nc2ccc(C)c(NC(=O)c3ccc(-c4ccc(F)cc4)cc3)c2)cc(OC)c1OC")
1

Request the reported inhibition at 0.5 h, 10 µM associated with COc1cc(C(=O)NC(=N)Nc2ccc(C)c(NC(=O)c3ccc(CCc4ccccc4)cc3)c2)cc(OC)c1OC.Cl
40

###

study-system: CYP3A4 (Homo sapiens)
Sequence (P08684 whole entry): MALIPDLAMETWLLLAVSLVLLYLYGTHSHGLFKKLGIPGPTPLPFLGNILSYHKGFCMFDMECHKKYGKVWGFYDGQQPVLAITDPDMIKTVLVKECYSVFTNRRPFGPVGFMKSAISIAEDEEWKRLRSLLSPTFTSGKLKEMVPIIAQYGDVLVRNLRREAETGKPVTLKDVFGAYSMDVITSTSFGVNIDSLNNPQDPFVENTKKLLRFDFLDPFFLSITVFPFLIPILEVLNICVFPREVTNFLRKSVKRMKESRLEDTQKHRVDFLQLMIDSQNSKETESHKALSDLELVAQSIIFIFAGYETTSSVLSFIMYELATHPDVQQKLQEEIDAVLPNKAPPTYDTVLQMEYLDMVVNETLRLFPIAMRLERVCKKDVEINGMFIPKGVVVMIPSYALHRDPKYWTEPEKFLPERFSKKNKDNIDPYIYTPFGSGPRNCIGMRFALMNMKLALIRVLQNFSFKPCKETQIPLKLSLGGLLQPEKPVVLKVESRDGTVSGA
test: Inhibition of recombinant human CYP3A4 expressed in insect cell microsomes at 1 uM using Luciferin-IPA as substrate preincubated for 10 mins followed by NADPH addition measured after 10 mins by luminometric method
Type: ADME
run-conditions: probe Luciferin-IPA
readout-name: inhibition at 10 min, 1 µM (%)
Give bare numbers, in %.

>>> number("COc1cc(C(=O)NC(=N)Nc2ccc(C)c(NC(=O)c3ccc(CCc4ccccc4)cc3)c2)cc(OC)c1OC.Cl")
76
>>> number("COc1cc(C(=O)NC(=N)Nc2ccc(C)c(NC(=O)c3ccc(-c4ccc(F)cc4)cc3)c2)cc(OC)c1OC.Cl")
52
>>> number("COc1cc(C(=O)NC(=S)Nc2ccc(C)c(NC(=O)c3ccc(-c4ccc(F)cc4)cc3)c2)cc(OC)c1OC")
4

Query compound follows.
Field: inhibition at 10 min, 1 µM (CYP3A4 (Homo sapiens)). Entry: COc1cc(C(=O)NC(=N)Nc2ccc(C)c(NC(=O)c3ccc(-c4ccccc4)cc3)c2)cc(OC)c1OC.Cl
38

###

Task for the reader: assign each of the following molecules its reported half-life.
test: Terminal half life in CD1 mouse at 200 mg/kg, po administered as single dose by HPLC-MS/MS analysis
Format: ADME, organism-based
run-conditions: in vivo, read-out: beta t1/2 (converted)
Numbers only, in h.

In the examples that follow, each entry is paired with its recorded half-life.
>>> number("COc1cc(C(=O)NC(=N)Nc2ccc(C)c(NC(=O)c3ccc(-c4ccc(F)cc4)cc3)c2)cc(OC)c1OC.Cl")
2.6
>>> number("COc1cc(C(=O)NC(=N)Nc2ccc(C)c(NC(=O)c3ccc(-c4ccccc4)cc3)c2)cc(OC)c1OC.Cl")
2.4

Okay, next one:
What value of measured half-life is listed for COc1cc(C(=O)NC(=N)Nc2ccc(C)c(NC(=O)c3ccc(CCc4ccccc4)cc3)c2)cc(OC)c1OC.Cl ?
2.5

###

Consider the following compounds; for each one, report its Tmax.
test: Tmax in CD1 mouse at 200 mg/kg, po administered as single dose by HPLC-MS/MS analysis
Type: ADME, organism-based
run-conditions: in vivo
Numbers only, in h.

>>> number("COc1cc(C(=O)NC(=N)Nc2ccc(C)c(NC(=O)c3ccc(-c4ccccc4)cc3)c2)cc(OC)c1OC.Cl")
2

Quick request: Tmax for each listed item, please.
1. COc1cc(C(=O)NC(=N)Nc2ccc(C)c(NC(=O)c3ccc(-c4ccc(F)cc4)cc3)c2)cc(OC)c1OC.Cl
2. COc1cc(C(=O)NC(=N)Nc2ccc(C)c(NC(=O)c3ccc(CCc4ccccc4)cc3)c2)cc(OC)c1OC.Cl

[1, 4]

###

test: Drug recovery in mouse plasma at 37 degC after 120 mins by HPLC-MS/MS analysis
Assay type: ADME, cell-free
run-conditions: read-out: Drug recovery
readout-name: remaining at 2 h (%)
One number for each entry, in %.

>>> number("COc1cc(C(=O)NC(=N)Nc2ccc(C)c(NC(=O)c3ccc(-c4ccccc4)cc3)c2)cc(OC)c1OC.Cl")
72.1
>>> number("COc1cc(C(=O)NC(=N)Nc2ccc(C)c(NC(=O)c3ccc(CCc4ccccc4)cc3)c2)cc(OC)c1OC.Cl")
81.3
>>> number("COc1cc(C(=O)NC(=N)Nc2ccc(C)c(NC(=O)c3ccc(-c4ccc(F)cc4)cc3)c2)cc(OC)c1OC.Cl")
66.6

Below: the item to evaluate.
# input molecule: COc1cc(C(=O)NC(=S)Nc2ccc(C)c(NC(=O)c3ccc(-c4ccc(F)cc4)cc3)c2)cc(OC)c1OC ; wanted: its remaining at 2 h
4.9

###

Answer each item with its documented AUC(0-t).
test: AUClast in CD1 mouse at 200 mg/kg, po administered as single dose by HPLC-MS/MS analysis
Type: ADME, organism-based
Parameters: dose 200 mg/kg, time 0 - last, route oral
run-conditions: in vivo
Numbers only, in µg·h/mL.

>>> number("COc1cc(C(=O)NC(=N)Nc2ccc(C)c(NC(=O)c3ccc(CCc4ccccc4)cc3)c2)cc(OC)c1OC.Cl")
137
>>> number("COc1cc(C(=O)NC(=N)Nc2ccc(C)c(NC(=O)c3ccc(-c4ccc(F)cc4)cc3)c2)cc(OC)c1OC.Cl")
223

Value lookup for AUC(0-t); key = COc1cc(C(=O)NC(=N)Nc2ccc(C)c(NC(=O)c3ccc(-c4ccccc4)cc3)c2)cc(OC)c1OC.Cl
237
